Listing of entries alongside the reported Cmax.
assay: Cmax in CD-1 mouse at 10 mg/kg, ip upto 7 hrs by LC-MS/MS analysis; format: ADME, organism-based; design: route intraperitoneal, dose 10 mg/kg, time <=7; details: in vivo
Record the result as number plus unit.

C[C@@H](Sc1nc2c(cnn2C)c(=O)n1-c1ccccc1)c1ccccc1 | 0.3 µM
CC(Sc1nc2nn(C3COC3)cc2c(=O)n1-c1ccccc1)c1ccccn1 (stereo unspecified) | 3.3 µM
CC(Sc1nc2nn(C3COC3)cc2c(=O)n1-c1ccccc1)c1ccccc1 (stereo unspecified) | 7.9 µM
CC(Sc1nc2c(cnn2C)c(=O)n1-c1ccccc1)c1ccccn1 (stereo unspecified) | 3.9 µM
CC(Sc1nc2nn(C3(C)COC3)cc2c(=O)n1-c1ccccc1)c1ccccc1 (stereo unspecified) | 7 µM

What the record says about CC(Sc1nc2c(cnn2C)c(=O)n1-c1ccccc1)c1ccccc1 (stereo unspecified) : Cmax is 2.3 µM
